Entries and their EC50
- STUDY TARGET: human mGlu5a receptor (Homo sapiens (Human), UniProt P41594)
- Sequence (P41594 other isoform, or with tags, fused parts or gaps): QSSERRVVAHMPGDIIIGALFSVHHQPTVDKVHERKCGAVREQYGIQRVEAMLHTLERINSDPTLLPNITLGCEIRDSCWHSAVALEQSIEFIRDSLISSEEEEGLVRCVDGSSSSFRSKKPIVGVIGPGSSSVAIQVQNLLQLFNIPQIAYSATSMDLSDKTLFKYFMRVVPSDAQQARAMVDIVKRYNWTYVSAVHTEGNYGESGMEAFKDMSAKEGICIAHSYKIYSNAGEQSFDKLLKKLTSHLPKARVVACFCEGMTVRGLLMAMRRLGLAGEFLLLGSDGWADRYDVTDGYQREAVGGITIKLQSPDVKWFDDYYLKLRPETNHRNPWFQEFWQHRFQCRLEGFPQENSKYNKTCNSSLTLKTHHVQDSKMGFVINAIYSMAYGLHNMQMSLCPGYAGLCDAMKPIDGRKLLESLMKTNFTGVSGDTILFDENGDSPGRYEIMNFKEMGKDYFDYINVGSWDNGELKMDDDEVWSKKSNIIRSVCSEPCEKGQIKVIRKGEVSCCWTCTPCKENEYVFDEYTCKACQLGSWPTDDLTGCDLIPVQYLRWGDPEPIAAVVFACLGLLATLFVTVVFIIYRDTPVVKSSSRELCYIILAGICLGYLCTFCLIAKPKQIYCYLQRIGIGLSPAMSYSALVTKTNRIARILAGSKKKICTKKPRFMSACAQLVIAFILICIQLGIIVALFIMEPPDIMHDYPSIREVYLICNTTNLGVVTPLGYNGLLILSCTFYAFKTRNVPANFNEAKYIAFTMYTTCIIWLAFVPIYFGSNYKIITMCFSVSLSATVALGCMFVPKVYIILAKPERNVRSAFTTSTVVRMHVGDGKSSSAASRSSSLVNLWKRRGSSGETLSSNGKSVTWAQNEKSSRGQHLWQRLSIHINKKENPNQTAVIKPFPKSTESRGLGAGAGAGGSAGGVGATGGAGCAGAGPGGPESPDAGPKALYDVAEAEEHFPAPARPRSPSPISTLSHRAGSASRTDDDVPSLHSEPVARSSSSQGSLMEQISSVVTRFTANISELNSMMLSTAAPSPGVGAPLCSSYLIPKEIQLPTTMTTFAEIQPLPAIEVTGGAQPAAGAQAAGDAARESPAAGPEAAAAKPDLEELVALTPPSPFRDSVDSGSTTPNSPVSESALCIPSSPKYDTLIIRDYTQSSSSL
- ASSAY REMARKS: Intracellular Ca2+ mobilization assay
- Type: cell-based
- EXPERIMENTAL PARAMETERS: HEK-293 cells expressing human mGlu5a, PAM activity; read-out: EC50 (nM) mGlu5 PAM
- From the text: A monoclonal HEK-293 cell line stably transfected with a cDNA encoding for the human mGlu5a receptor was generated; for the work with mGlu5 Positive Allosteric Modulators (PAMs), a cell line with low receptor expression levels and low constitutive receptor activity was selected to allow the differentiation of agonistic versus PAM activity. […]
Quick reminder: number only, in nM, skip the unit.

1. O=C1OC[C@H]2CCC[C@H]2N1c1ccc(C#Cc2ccccc2)cn1 :: 22

Q) Query (compound): `O=C1OC[C@H]2CCC[C@H]2N1c1ccc(C#Cc2ccc(F)cc2)cn1` ; field requested: EC50
A) 10

Q) Query (compound): `O=C1OC[C@H]2CCC[C@H]2N1c1ccc(C#Cc2cccc(F)c2)cn1` ; field requested: EC50
A) 10

Q) Query (compound): `O=C1OC[C@H]2CCC[C@H]2N1c1ccc(C#Cc2cc(F)ccc2F)cn1` ; field requested: EC50
A) 15

---

- STUDY TARGET: human mGlu5a receptor (Homo sapiens (Human))
- ASSAY REMARKS: Intracellular Ca2+ mobilization assay
- Type: cell-based
- EXPERIMENTAL PARAMETERS: HEK-293 cells expressing human mGlu5a, PAM activity in presence of EC20 L-glutamate; read-out: Ec50
Entries and their EC50

Some compounds with recorded EC50:
1. O=C1OC[C@H]2CCC[C@H]2N1c1ccc(C#Cc2ccccc2)cn1 :: 22 nM
2. CC1(C)COC(=O)N(c2ccc(C#Cc3ccccc3)cn2)C1 :: 27 nM

Q) Query (compound): `O=C1OC[C@H]2CCC[C@H]2N1c1ccc(C#Cc2cccc(F)c2)cn1` ; field requested: EC50
A) 10 nM

Q) Query (compound): `CC1(C)CCN(c2ccc(C#Cc3ccccc3)cn2)C(=O)O1` ; field requested: EC50
A) 10 nM

Q) Query (compound): `CC1(C)CCN(c2ccc(C#Cc3ccc(F)cc3)cn2)C(=O)O1` ; field requested: EC50
A) 22 nM

Q) Query (compound): `O=C1OC[C@H]2CCC[C@H]2N1c1ccc(C#Cc2cc(F)ccc2F)cn1` ; field requested: EC50
A) 15 nM

Q) Query (compound): `O=C1OC[C@H]2CCC[C@H]2N1c1ccc(C#Cc2ccc(F)cc2)cn1` ; field requested: EC50
A) 10 nM

Q) Query (compound): `CC1(C)CCN(c2ccc(C#Cc3cc(F)ccc3F)cn2)C(=O)O1` ; field requested: EC50
A) 12 nM

Q) Query (compound): `CC1(C)CCN(c2ccc(C#Cc3cccc(F)c3)cn2)C(=O)O1` ; field requested: EC50
A) 13 nM

Q) Query (compound): `O=C1O[C@H]2CCC[C@H]2CN1c1ccc(C#Cc2ccccc2)cn1` ; field requested: EC50
A) 27 nM

---

- STUDY TARGET: UniProt:P41594
- ASSAY REMARKS: Intracellular Ca2+ mobilization assay
- Format: cell-based
- EXPERIMENTAL PARAMETERS: maximal response in % of maximal stimulatory effect of saturating L-glutamate; read-out: Efficacy [%]
- Description: A monoclonal HEK-293 cell line stably transfected with a cDNA encoding for the human mGlu5a receptor was generated; for the work with mGlu5 Positive Allosteric Modulators (PAMs), a cell line with low receptor expression levels and low constitutive receptor activity was selected to allow the differentiation of agonistic versus PAM activity. […]
MEASURED PROPERTY: Emax (%)
Quick reminder: number only, in %, skip the unit.

Some compounds with recorded Emax:
1. O=C1OC[C@H]2CCC[C@H]2N1c1ccc(C#Cc2ccc(F)cc2)cn1 :: 40
2. CC1(C)CCN(c2ccc(C#Cc3cc(F)ccc3F)cn2)C(=O)O1 :: 95
3. CC1(C)CCN(c2ccc(C#Cc3ccccc3)cn2)C(=O)O1 :: 86
4. O=C1OC[C@H]2CCC[C@H]2N1c1ccc(C#Cc2ccccc2)cn1 :: 38
5. CC1(C)CCN(c2ccc(C#Cc3cccc(F)c3)cn2)C(=O)O1 :: 124
6. O=C1OC[C@H]2CCC[C@H]2N1c1ccc(C#Cc2cccc(F)c2)cn1 :: 43
7. O=C1OC[C@H]2CCC[C@H]2N1c1ccc(C#Cc2cc(F)ccc2F)cn1 :: 35
8. CC1(C)COC(=O)N(c2ccc(C#Cc3ccccc3)cn2)C1 :: 135

Q) Query (compound): `CC1(C)CCN(c2ccc(C#Cc3ccc(F)cc3)cn2)C(=O)O1` ; field requested: Emax
A) 85

Q) Query (compound): `O=C1O[C@H]2CCC[C@H]2CN1c1ccc(C#Cc2ccccc2)cn1` ; field requested: Emax
A) 123
